- Assay: Pharmacokinetic profile after single oral administration: plasma, heart and liver levels
- Type: in vivo, male Swiss SPF (CD1)-mice
- Reported Conditions: male, Swiss SPF (CD1), mouse; plasma, time 2 h, 20 mg base-eq./kg oral, n=3; read-out: Mean plasma level
- Procedure: Compound nr. 21 was dissolved in a 10% hydroxypropyl-β-cyclodextrin (HP-β-CD) solution at a final concentration of 1 mg base-eq./ml, .pH 4.36. Three animals were administered orally the solution of compound nr. 21 to obtain a dose of 20 mg base-eq./kg. Blood samples were taken at 30 min, 1, 2, 4, 8 and 24 h after oral dose administration. Plasma was obtained following centrifugation at 4° C. for 10 minutes at approximately 1900×g. […] Plasma and tissue samples were analysed for compound nr. […]
Experimental Readout: concentration at 2 h (ng/mL)
# value in ng/mL; strip the unit string

What value of concentration at 2 h has been recorded for this entry: O=C(NCCCN1CCCC1=O)c1cnccc1Nc1nc(-c2cc(Br)ccc2F)nc2nccnc12 [Compound 21] 21.7

----------
- Assay: Pharmacokinetic profile after single oral administration: plasma, heart and liver levels
- Format: in vivo, male Swiss SPF (CD1)-mice
- Reported Conditions: male, Swiss SPF (CD1), mouse, 20 mg/kg; liver, 0.5 h post dose, 20 mg base-eq./kg oral; read-out: Mean maximum tissue concentration (Cmax)
Experimental Readout: Cmax (ng/g)
# value in ng/g; strip the unit string

What value of Cmax has been recorded for this entry: `O=C(NCCCN1CCCC1=O)c1cnccc1Nc1nc(-c2cc(Br)ccc2F)nc2nccnc12` 4060

----------
- Assay: Pharmacokinetic profile after single oral administration: plasma, heart and liver levels
- Format: in vivo, male Swiss SPF (CD1)-mice
- Reported Conditions: male, Swiss SPF (CD1), mouse; plasma, time 4 h, 20 mg base-eq./kg oral, n=3; read-out: Mean plasma level
Experimental Readout: concentration at 4 h (ng/mL)
# value in ng/mL; strip the unit string

What value of concentration at 4 h has been recorded for this entry: O=C(NCCCN1CCCC1=O)c1cnccc1Nc1nc(-c2cc(Br)ccc2F)nc2nccnc12 [Compound 21] 20.3

----------
- Assay: Pharmacokinetic profile after single oral administration: plasma, heart and liver levels
- Assay type: in vivo, male Swiss SPF (CD1)-mice
- Reported Conditions: male, Swiss SPF (CD1), mouse; plasma, time 0.5 h, 20 mg base-eq./kg oral, n=3; read-out: Mean plasma level
Experimental Readout: concentration at 0.5 h (ng/mL)
# value in ng/mL; strip the unit string

What value of concentration at 0.5 h has been recorded for this entry: `O=C(NCCCN1CCCC1=O)c1cnccc1Nc1nc(-c2cc(Br)ccc2F)nc2nccnc12` 220

----------
- Assay: Pharmacokinetic profile after single oral administration: plasma, heart and liver levels
- Type: in vivo, male Swiss SPF (CD1)-mice
- Reported Conditions: male, Swiss SPF (CD1), mouse; plasma, time 8 h, 20 mg base-eq./kg oral, n=3; read-out: Mean plasma level
Experimental Readout: concentration at 8 h (ng/mL)
# value in ng/mL; strip the unit string

What value of concentration at 8 h has been recorded for this entry: `O=C(NCCCN1CCCC1=O)c1cnccc1Nc1nc(-c2cc(Br)ccc2F)nc2nccnc12` 5.52

----------
- Assay: Pharmacokinetic profile after single oral administration: plasma, heart and liver levels
- Assay type: in vivo, male Swiss SPF (CD1)-mice
- Reported Conditions: male, Swiss SPF (CD1), mouse; plasma, time 1 h, 20 mg base-eq./kg oral, n=3; read-out: Mean plasma level
Experimental Readout: concentration at 1 h
Give the number first and the unit second.

What value of concentration at 1 h has been recorded for this entry: O=C(NCCCN1CCCC1=O)c1cnccc1Nc1nc(-c2cc(Br)ccc2F)nc2nccnc12 [Compound 21] 166 ng/mL

Provenance of the data: patent US9708328B2
